TEST TARGET: T1, human BDCA2-his protein (human, UniProt Q8WTT0 45-213)
T1 construct: also called BDCA2-his antigen protein
T1 sequence: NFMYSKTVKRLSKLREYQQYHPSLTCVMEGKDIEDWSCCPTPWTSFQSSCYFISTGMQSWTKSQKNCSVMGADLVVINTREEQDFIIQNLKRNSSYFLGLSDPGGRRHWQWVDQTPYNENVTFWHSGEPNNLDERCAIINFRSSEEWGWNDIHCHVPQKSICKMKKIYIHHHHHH
ASSAY PROCEDURE: ELISA, BDCA2-his coated at 0.1 ug/mL, anti-human Fc HRP

# BINDER, binding result
data = [
    ("230-N55G (antibody, V domains shown, Single-point mutant of humanized antibody 230 (human IgG1/kappa)) VH: QVQLVQSGAEVKKPGASVKVSCKASGYTFTSYIIHWVRQAPGQGLEWMGTIYPGGGDTSYNQKFKGRVTMTRDTSTSTVYMELSSLRSEDTAVYYCARMGDNEYFDYWGQGTLVTVSS VL: DIQMTQSPSSLSASVGDRVTITCRASGNIHNYLAWYQQKPGKAPKLLLYDAETLADGVPSRFSGSGSGTDYTLTISSLQPEDFATYYCQHFWSTPYTFGGGTKVEIK", "binds"),
    ("230NG-DI (antibody, V domains shown, Linked to the constant region of the IgG1 subtype) VH: QVQLVQSGAEVKKPGASVKVSCKASGYTFTSYIIHWVRQAPGQGLEWMGTIYPGGGDTSYNQKFKGRVTMTRDTSTSTVYMELSSLRSEDTAVYYCARMGDNEYFDYWGQGTLVTVSS VL: DIQMTQSPSSLSASVGDRVTITCRASGNIHNYLAWYQQKPGKAPKLLLYDAETLAIGVPSRFSGSGSGTDYTLTISSLQPEDFATYYCQHFWSTPYTFGGGTKVEIK", "binds"),
    ("230NR-DI (antibody, V domains shown, Linked to the constant region of the IgG1 subtype) VH: QVQLVQSGAEVKKPGASVKVSCKASGYTFTSYIIHWVRQAPGQGLEWMGTIYPGRGDTSYNQKFKGRVTMTRDTSTSTVYMELSSLRSEDTAVYYCARMGDNEYFDYWGQGTLVTVSS VL: DIQMTQSPSSLSASVGDRVTITCRASGNIHNYLAWYQQKPGKAPKLLLYDAETLAIGVPSRFSGSGSGTDYTLTISSLQPEDFATYYCQHFWSTPYTFGGGTKVEIK", "binds"),
]
